// reported MIC for each item listed
Tested on: Pseudomonas aeruginosa
Assay: Antibacterial activity against Pseudomonas aeruginosa AK958 after 24 hrs by broth dilution assay
Assay type: functional
Details: AK958, 24 h
readout.label: MIC

CC(C)C1=CC2=C(C(=O)C1=O)[C@@]13CCCC(C)(C)[C@@H]1[C@H](OC3=O)[C@H]2O ... > 40 µg/mL
COc1c2c(c(O)c3c1[C@@H](C)CO3)[C@@]13CCCC(C)(C)[C@@H]1C[C@@H]2OC3=O ... > 40 µg/mL
COc1c(C(C)C)cc2c(c1OC)[C@@]13CCCC(C)(C)[C@@H]1[C@H](OC3=O)[C@@H]2OCc1ccccc1 ... > 40 µg/mL
C[C@H]1COC2=C1C(=O)C1=C(C2=O)[C@@]23CCCC(C)(C)[C@@H]2C[C@@H]1OC3=O ... > 40 µg/mL
CC(=O)OC[C@H](C)C1=C(OC(C)=O)C(O)C2=C(C1=O)[C@@H]1C[C@H]3C(C)(C)CCC[C@]23C(=O)O1 (some centres not stated) ... > 40 µg/mL
CC(C)C1=CC2=C(C(=O)C1=O)[C@@]13CCCC(C)(C)[C@@H]1C[C@@H]2OC3=O ... > 40 µg/mL
C[C@H]1COc2c1cc1c(c2O)[C@@]23CCCC(C)(C)[C@@H]2C[C@@H]1OC3=O ... > 40 µg/mL
